Data provenance is ChEMBL document CHEMBL1135502.

experiment: Plasma drug concentration after Oral administration to SD Rat 11 at 1 hr; assay type: ADME, organism-based; details: Sprague-Dawley
MEASURE NAME: concentration at 1 h (ng/mL)
# output: bare number, implied unit ng/mL

For COc1cc2ncnc(N3CCN(C(=O)Nc4ccc(OC(C)C)cc4)CC3)c2cc1OC , what is its reported concentration at 1 h?
21300

====

assay: Plasma drug concentration after Oral administration to SD Rat 8 at 8 hr; type: ADME, organism-based; details: Sprague-Dawley
MEASURE NAME: concentration at 8 h (ng/mL)
Kindly answer with a numeric value in ng/mL, unit omitted.

What concentration at 8 h value was documented for this compound, COc1cc2ncnc(N3CCN(C(=S)Nc4ccc(Br)cc4)CC3)c2cc1OC ?
100
